# protocol description: Cardio-hemodynamic, cardio-electrophysiological, EEG and pulmonary effects in ventilated, anesthetized dogs
# Type: in vivo, dog
# assay conditions: Beagle, plasma, iv; dog, 5-min i.v. infusion, dose 5 mg/kg (increasing doses, 30-min intervals; total dose 9.86 mg/kg); read-out: Median plasma level (median Cmax)

compound	Cmax / ng/mL
COc1cc(N)c(Cl)cc1C(=O)NC1CCN(CCCOc2ccc(F)cc2)CC1(F)F (single isomer, unassigned) [Compound (−)-17]	20400

* * *

# protocol description: Cardiovascular effects in the anaesthetized guinea-pig
# Assay type: in vivo
# assay conditions: female, plasma, iv; guinea pig, end of 5-min i.v. infusion, dose 0.32 mg/kg (increasing doses, 15-min intervals); read-out: Median plasma level

molecule	concentration at 5 min
COc1cc(N)c(Cl)cc1C(=O)NC1CCN(CCCOc2ccc(F)cc2)CC1(F)F (single isomer, unassigned) [Compound (−)-17]	873 ng/mL

* * *

# protocol description: Cardio-hemodynamic, cardio-electrophysiological, EEG and pulmonary effects in ventilated, anesthetized dogs
# Format: in vivo, dog
# assay conditions: Beagle, plasma, iv; dog, 5-min i.v. infusion, dose 2.5 mg/kg (increasing doses, 30-min intervals); read-out: Median plasma level (Cmax)

compound	Cmax
COc1cc(N)c(Cl)cc1C(=O)NC1CCN(CCCOc2ccc(F)cc2)CC1(F)F (single isomer, unassigned) [Compound (−)-17]	9550 ng/mL

* * *

# measured on: D2L (Homo sapiens, UniProt P14416)
# Construct: expressed in transfected cells; host or cells: CHO (membrane fraction)
# Sequence (P14416 whole entry): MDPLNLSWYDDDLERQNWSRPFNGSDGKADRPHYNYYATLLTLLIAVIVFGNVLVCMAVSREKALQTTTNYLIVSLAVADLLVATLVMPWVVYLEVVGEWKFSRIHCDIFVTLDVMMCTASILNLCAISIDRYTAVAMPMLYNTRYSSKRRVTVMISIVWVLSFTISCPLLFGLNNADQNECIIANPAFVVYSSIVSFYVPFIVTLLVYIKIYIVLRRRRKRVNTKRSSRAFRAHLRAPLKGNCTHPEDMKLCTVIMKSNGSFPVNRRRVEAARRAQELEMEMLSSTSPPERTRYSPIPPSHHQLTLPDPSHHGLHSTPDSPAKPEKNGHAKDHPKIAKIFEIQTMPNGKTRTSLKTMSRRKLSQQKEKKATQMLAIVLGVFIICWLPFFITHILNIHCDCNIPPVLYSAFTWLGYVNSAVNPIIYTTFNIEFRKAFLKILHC
# protocol description: Competitive radioligand binding, D2L
# assay conditions: CHO membranes, 3H-spiperone 0.2 nM; read-out: pIC50 D2L (converted)
Listing of entries alongside the reported IC50.
reported endpoint: IC50 (µM)

molecule	reported endpoint	inequality sign	quantitative readout
COc1cc(N)c(Cl)cc1C(=O)NC1CCN(CCCOc2ccc(F)cc2)CC1OC (centres unmarked) [Cisapride, reference compound]	IC50	=	0.537
COc1cc(N)c(Cl)cc1C(=O)N[C@@H]1CCN(CCCOc2ccc(F)cc2)C[C@H]1F (single isomer, unassigned) [(+)-7]	IC50	=	2.75
COc1cc(N)c(Cl)cc1C(=O)N[C@H]1CCN(CCCOc2ccc(F)cc2)C[C@H]1F (single isomer, unassigned) [(−)-12]	IC50	=	4.79
COc1cc(N)c(Cl)cc1C(=O)N[C@@H]1CCN(CCCOc2ccc(F)cc2)C[C@H]1F (racemic) [(±)-7]	IC50	=	4.57
COc1cc(N)c(Cl)cc1C(=O)N[C@H]1CCN(CCCOc2ccc(F)cc2)C[C@H]1F (racemic) [(±)-12]	IC50	=	4.68
COc1cc(N)c(Cl)cc1C(=O)N[C@@H]1CCN(CCCOc2ccc(F)cc2)C[C@H]1F (single isomer, unassigned) [(−)-7]	IC50	=	7.94
COc1cc(N)c(Cl)cc1C(=O)NC1CCN(CCCOc2ccc(F)cc2)CC1(F)F (single isomer, unassigned; (+)) [(+)-17]	IC50	>	10
COc1cc(N)c(Cl)cc1C(=O)NC1CCN(CCCOc2ccc(F)cc2)CC1(F)F (racemic) [(±)-17]	IC50	=	10.5

* * *

# measured on: 5HT4B (Homo sapiens)
# Construct: expressed in transfected cells; host or cells: HEK293 (membrane fraction)
# Sequence (Q13639 whole entry): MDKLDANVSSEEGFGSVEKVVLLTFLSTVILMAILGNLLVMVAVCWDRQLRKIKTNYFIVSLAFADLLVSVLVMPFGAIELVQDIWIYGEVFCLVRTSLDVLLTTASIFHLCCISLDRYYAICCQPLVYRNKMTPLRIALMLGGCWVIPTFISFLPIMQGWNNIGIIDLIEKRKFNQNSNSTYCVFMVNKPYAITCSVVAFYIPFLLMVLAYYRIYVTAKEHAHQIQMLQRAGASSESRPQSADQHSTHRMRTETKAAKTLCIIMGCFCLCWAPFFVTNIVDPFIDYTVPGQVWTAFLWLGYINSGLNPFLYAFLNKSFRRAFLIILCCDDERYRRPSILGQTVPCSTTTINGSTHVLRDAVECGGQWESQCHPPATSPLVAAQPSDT
# protocol description: Competitive radioligand binding, 5HT4B
# assay conditions: HEK293 membranes, 3H-GR113808 0.1 nM; read-out: pIC50 5HT4B (converted)
The label is 1 for IC50 below 400 nM and -1 for IC50 equal to or exceeding 400 nM.

molecule	measured on	category label
COc1cc(N)c(Cl)cc1C(=O)N[C@@H]1CCN(CCCOc2ccc(F)cc2)C[C@H]1F (racemic) [(±)-7]	5HT4B (Homo sapiens)	-1
COc1cc(N)c(Cl)cc1C(=O)N[C@H]1CCN(CCCOc2ccc(F)cc2)C[C@H]1F (racemic) [(±)-12]	5HT4B (Homo sapiens)	1
COc1cc(N)c(Cl)cc1C(=O)N[C@H]1CCN(CCCOc2ccc(F)cc2)C[C@H]1F (single isomer, unassigned) [(−)-12]	5HT4B (Homo sapiens)	-1
COc1cc(N)c(Cl)cc1C(=O)N[C@H]1CCN(CCCOc2ccc(F)cc2)C[C@H]1F (single isomer, unassigned) [(+)-12]	5HT4B (Homo sapiens)	1
COc1cc(N)c(Cl)cc1C(=O)NC1CCN(CCCOc2ccc(F)cc2)CC1(F)F (racemic) [(±)-17]	5HT4B (Homo sapiens)	-1
COc1cc(N)c(Cl)cc1C(=O)N[C@@H]1CCN(CCCOc2ccc(F)cc2)C[C@H]1F (single isomer, unassigned) [(−)-7]	5HT4B (Homo sapiens)	-1
COc1cc(N)c(Cl)cc1C(=O)NC1CCN(CCCOc2ccc(F)cc2)CC1(F)F (single isomer, unassigned; (+)) [(+)-17]	5HT4B (Homo sapiens)	-1
COc1cc(N)c(Cl)cc1C(=O)N[C@@H]1CCN(CCCOc2ccc(F)cc2)C[C@H]1F (single isomer, unassigned) [(+)-7]	5HT4B (Homo sapiens)	-1

* * *

# protocol description: Cardiovascular effects in the anaesthetized guinea-pig
# Type: in vivo
# assay conditions: female, plasma, iv; guinea pig, end of 5-min i.v. infusion, dose 0.16 mg/kg (increasing doses, 15-min intervals); read-out: Median plasma level

compound	concentration at 5 min
COc1cc(N)c(Cl)cc1C(=O)NC1CCN(CCCOc2ccc(F)cc2)CC1(F)F (single isomer, unassigned) [Compound (−)-17]	398 ng/mL

* * *

# measured on: 5HT3A/B (Homo sapiens, UniProt O95264+P46098)
# Construct: expressed in transfected cells; host or cells: HEK293 (membrane fraction)
# Sequence (P46098 24-478): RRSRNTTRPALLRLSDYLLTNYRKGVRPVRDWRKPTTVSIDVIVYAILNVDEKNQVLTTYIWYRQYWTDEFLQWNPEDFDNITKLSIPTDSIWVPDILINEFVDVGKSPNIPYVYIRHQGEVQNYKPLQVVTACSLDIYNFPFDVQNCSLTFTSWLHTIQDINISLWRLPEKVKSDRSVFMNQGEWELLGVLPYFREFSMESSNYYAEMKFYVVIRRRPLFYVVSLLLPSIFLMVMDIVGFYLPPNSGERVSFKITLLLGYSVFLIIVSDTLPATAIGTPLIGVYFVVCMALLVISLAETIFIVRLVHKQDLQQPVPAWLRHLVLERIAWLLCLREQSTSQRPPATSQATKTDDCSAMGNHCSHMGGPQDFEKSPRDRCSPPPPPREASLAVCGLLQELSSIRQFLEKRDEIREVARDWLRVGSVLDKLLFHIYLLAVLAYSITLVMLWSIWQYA
# Sequence (O95264 22-441): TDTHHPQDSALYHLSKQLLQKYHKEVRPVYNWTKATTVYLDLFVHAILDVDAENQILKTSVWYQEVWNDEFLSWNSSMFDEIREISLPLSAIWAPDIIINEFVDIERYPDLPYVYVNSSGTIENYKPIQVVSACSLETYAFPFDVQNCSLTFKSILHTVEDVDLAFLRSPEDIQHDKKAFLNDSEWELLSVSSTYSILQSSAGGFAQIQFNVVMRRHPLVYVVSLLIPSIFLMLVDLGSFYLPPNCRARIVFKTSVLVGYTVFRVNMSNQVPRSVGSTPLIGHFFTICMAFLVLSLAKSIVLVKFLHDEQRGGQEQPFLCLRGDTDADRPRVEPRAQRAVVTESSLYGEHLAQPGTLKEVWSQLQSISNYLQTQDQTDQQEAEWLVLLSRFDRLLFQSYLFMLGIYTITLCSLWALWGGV
# protocol description: Competitive radioligand binding, 5HT3A/B
# assay conditions: HEK293 membranes, 3H-GR65630 0.5 nM; read-out: pIC50 5HT3A/B (converted)
Listing of entries alongside the reported IC50.

molecule	measured on	IC50
COc1cc(N)c(Cl)cc1C(=O)N[C@@H]1CCN(CCCOc2ccc(F)cc2)C[C@H]1F (single isomer, unassigned) [(+)-7]	5HT3A/B (Homo sapiens, UniProt O95264+P46098)	> 10 µM
COc1cc(N)c(Cl)cc1C(=O)N[C@H]1CCN(CCCOc2ccc(F)cc2)C[C@H]1F (racemic) [(±)-12]	5HT3A/B (Homo sapiens, UniProt O95264+P46098)	6.76 µM
COc1cc(N)c(Cl)cc1C(=O)N[C@H]1CCN(CCCOc2ccc(F)cc2)C[C@H]1F (single isomer, unassigned) [(−)-12]	5HT3A/B (Homo sapiens, UniProt O95264+P46098)	2.75 µM
COc1cc(N)c(Cl)cc1C(=O)NC1CCN(CCCOc2ccc(F)cc2)CC1OC (centres unmarked) [Cisapride, reference compound]	5HT3A/B (Homo sapiens, UniProt O95264+P46098)	1.15 µM
COc1cc(N)c(Cl)cc1C(=O)NC1CCN(CCCOc2ccc(F)cc2)CC1(F)F (single isomer, unassigned; (+)) [(+)-17]	5HT3A/B (Homo sapiens, UniProt O95264+P46098)	> 10 µM
COc1cc(N)c(Cl)cc1C(=O)NC1CCN(CCCOc2ccc(F)cc2)CC1(F)F (racemic) [(±)-17]	5HT3A/B (Homo sapiens, UniProt O95264+P46098)	> 10 µM
COc1cc(N)c(Cl)cc1C(=O)N[C@H]1CCN(CCCOc2ccc(F)cc2)C[C@H]1F (single isomer, unassigned) [(+)-12]	5HT3A/B (Homo sapiens, UniProt O95264+P46098)	> 10 µM
COc1cc(N)c(Cl)cc1C(=O)N[C@@H]1CCN(CCCOc2ccc(F)cc2)C[C@H]1F (racemic) [(±)-7]	5HT3A/B (Homo sapiens, UniProt O95264+P46098)	> 10 µM

* * *

Listing of entries alongside the reported pIC50.
# measured on: hERG (Homo sapiens)
# Sequence (Q12809 whole entry): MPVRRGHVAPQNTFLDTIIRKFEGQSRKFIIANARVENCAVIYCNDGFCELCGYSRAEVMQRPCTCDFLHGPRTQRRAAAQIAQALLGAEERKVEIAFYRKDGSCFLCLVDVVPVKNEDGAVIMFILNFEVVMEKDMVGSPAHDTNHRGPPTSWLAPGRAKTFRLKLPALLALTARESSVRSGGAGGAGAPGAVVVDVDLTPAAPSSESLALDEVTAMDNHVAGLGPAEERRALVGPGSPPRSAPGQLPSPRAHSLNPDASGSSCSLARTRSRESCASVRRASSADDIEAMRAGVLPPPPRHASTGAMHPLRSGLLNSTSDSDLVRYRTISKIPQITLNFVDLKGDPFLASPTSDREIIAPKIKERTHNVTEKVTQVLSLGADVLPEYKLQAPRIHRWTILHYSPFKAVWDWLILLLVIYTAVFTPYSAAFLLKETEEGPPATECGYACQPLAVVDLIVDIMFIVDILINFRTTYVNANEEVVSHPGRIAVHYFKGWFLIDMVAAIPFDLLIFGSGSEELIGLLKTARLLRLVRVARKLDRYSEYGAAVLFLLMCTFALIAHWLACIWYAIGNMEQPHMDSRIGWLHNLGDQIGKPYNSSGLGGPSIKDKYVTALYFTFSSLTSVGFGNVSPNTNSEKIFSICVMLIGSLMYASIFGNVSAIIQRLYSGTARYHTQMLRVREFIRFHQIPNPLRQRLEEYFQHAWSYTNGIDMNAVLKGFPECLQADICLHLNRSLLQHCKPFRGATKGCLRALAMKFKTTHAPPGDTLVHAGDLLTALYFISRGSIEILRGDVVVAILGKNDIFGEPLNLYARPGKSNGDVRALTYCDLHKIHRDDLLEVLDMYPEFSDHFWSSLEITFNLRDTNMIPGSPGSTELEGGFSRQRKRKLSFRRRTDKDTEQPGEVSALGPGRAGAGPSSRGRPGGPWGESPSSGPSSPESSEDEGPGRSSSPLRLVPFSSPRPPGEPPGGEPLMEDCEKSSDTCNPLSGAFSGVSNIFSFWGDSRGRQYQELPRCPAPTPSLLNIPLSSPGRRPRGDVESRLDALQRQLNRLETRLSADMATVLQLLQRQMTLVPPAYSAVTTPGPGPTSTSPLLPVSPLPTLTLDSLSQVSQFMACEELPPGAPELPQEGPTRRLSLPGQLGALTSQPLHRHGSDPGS
pIC50: −log10 of the molar value.
reported endpoint: pIC50

molecule	inequality sign	quantitative readout
COc1cc(N)c(Cl)cc1C(=O)N[C@H]1CCN(CCCOc2ccc(F)cc2)C[C@H]1F (single isomer, unassigned) [(+)-12]	=	6.75
COc1cc(N)c(Cl)cc1C(=O)NC1CCN(CCCOc2ccc(F)cc2)CC1(F)F (racemic) [(±)-17]	=	5.12
COc1cc(N)c(Cl)cc1C(=O)N[C@H]1CCN(CCCOc2ccc(F)cc2)C[C@H]1F (racemic) [(±)-12]	=	6.50
COc1cc(N)c(Cl)cc1C(=O)N[C@@H]1CCN(CCCOc2ccc(F)cc2)C[C@H]1F (racemic) [(±)-7]	=	6.63
COc1cc(N)c(Cl)cc1C(=O)N[C@@H]1CCN(CCCOc2ccc(F)cc2)C[C@H]1F (single isomer, unassigned) [(−)-7]	=	6.50
COc1cc(N)c(Cl)cc1C(=O)NC1CCN(CCCOc2ccc(F)cc2)CC1(F)F (single isomer, unassigned; (+)) [(+)-17]	<	5.00
COc1cc(N)c(Cl)cc1C(=O)N[C@@H]1CCN(CCCOc2ccc(F)cc2)C[C@H]1F (single isomer, unassigned) [(+)-7]	=	6.54
COc1cc(N)c(Cl)cc1C(=O)N[C@H]1CCN(CCCOc2ccc(F)cc2)C[C@H]1F (single isomer, unassigned) [(−)-12]	=	6.72
